Taken from patent US20250026849A1.

- experimentalTarget: T1, CD123 (Homo sapiens (Human), UniProt P26951 19-305, limits assumed)
- T1 construct: The CD123 construct used in the ELISA is not described; also called CD123-Signal
- T1 sequence: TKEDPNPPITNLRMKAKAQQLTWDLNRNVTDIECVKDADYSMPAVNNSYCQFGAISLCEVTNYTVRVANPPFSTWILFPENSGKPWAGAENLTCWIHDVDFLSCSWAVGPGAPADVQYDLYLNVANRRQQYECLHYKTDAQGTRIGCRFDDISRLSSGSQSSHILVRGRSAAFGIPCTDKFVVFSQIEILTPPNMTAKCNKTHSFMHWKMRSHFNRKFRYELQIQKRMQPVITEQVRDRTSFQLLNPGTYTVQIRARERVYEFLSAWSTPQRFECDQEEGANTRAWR
- assayNotes: ELISA
- Parameters: unit not given here
Please mark Satisfied if the recorded ELISA_avg is equal to or greater than 5, and Not satisfied if it falls below.

>>> classassignment("D domain of SEQ ID NO: 406 (designed binder) MGSWFEFNYRLGAIEDRLWALGGSEAELAAFEKEIAAFESELQAYKGKGNPEVEMLRQIAAEIREFLQAYRHN")
"Satisfied"
>>> classassignment("D domain of SEQ ID NO: 356 (designed binder) MGSWTEFYYRLEAIEDRLWALGGSEAELAAFEKEIAAFESELQAYKGKGNPEVEFLRVEAANIRDMLQAYRHN")
"Satisfied"
>>> classassignment("D domain of SEQ ID NO: 522 (designed binder) MGSWYEFKFDLAEIKEQLEALGGSEAELALFEDDIAFFEYDLQNYKGKGNPEVEALRKEAAAIRDELQAYRHN")
"Not satisfied"

Query: API: above_or_equal(metric=ELISA_avg, cutoff=5) for item D domain of SEQ ID NO: 659 (designed binder) MGSWYEFENRLFAIEERLWALGGSEAELAWFEYEIANFEWGLQSYKGKGNPEVEALDNEAEAIDIELAAYRHN
Result: Not satisfied

Query: Determine whether measured ELISA_avg meets or exceeds 5 for D domain of SEQ ID NO: 478 (designed binder) MGSWMFFKEDLADIKWALEALGGSEAELAFFEEEIALFEQHLQQYKGKGNPEVEALRKEAAAIRDELQAYRHN
Result: Not satisfied

Query: Is it the case that D domain of SEQ ID NO: 640 (designed binder) MGSWYEFEWRLDAIDRRLWALGGSEAELADFEEEIADFEWMLQNYKGKGNPEVEALVDEASAIQTELWAYRHN has ELISA_avg reaching or exceeding 5?
Result: Satisfied

Query: Hello, I need to know if D domain of SEQ ID NO: 484 (designed binder) MGSWYWFKQDLAHIKSMLEALGGSEAELAWFEEDIADFESELQEYKGKGNPEVEALRKEAAAIRDELQAYRHN has measured ELISA_avg not below 5. Thanks!
Result: Not satisfied
